This collection of values is drawn from the supplement of paper PMC3334620.

Biological target: Ste12 (UniProt P13574)
Sequence (P13574 whole entry): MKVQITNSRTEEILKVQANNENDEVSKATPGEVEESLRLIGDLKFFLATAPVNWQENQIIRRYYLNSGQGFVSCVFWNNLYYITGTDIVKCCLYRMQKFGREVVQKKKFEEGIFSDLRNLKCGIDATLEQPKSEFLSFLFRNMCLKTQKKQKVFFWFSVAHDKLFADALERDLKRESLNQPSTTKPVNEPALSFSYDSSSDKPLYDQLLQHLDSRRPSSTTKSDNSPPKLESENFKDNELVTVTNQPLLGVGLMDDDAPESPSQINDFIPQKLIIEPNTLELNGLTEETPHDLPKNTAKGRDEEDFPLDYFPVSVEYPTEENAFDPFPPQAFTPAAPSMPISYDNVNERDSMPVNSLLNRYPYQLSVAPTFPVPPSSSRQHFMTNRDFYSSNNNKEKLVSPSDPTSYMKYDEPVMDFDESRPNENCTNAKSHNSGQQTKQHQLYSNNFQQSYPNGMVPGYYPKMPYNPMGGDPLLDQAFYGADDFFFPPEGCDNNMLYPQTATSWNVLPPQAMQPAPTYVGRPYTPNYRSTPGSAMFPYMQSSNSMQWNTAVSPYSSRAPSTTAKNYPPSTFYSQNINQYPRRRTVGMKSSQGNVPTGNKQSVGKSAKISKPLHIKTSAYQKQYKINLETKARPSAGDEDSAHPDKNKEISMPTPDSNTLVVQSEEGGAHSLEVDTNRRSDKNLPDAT
Experiment: PBM E-score (8-mer binding enrichment) (E-score (-0.5 to 0.5)); higher = stronger / more preferred TF binding
Conditions: protein concentration: 200 nM; construct: GST-DNA-binding domain
In all, about 33,000 sequences were measured (“E-score (-0.5 to 0.5)”: median about -0.01, highest 2% from about 0.26 on). The full list was thinned out, with the highest values kept by preference.
Classes are defined on PBM E-score with ranges LOW (below 0.07), MEDIUM (0.07 to below 0.2), HIGH (0.2 or more)

Textbook exercise: identify the category of the sequence given here, `AACAGAAG` , according to its measured value. LOW
